Just for reference, patent US20240270762A1 is where these values come from.

- Tested on: A. baumannii CDC-0036
- procedure.details: microbe, parasite or virus in culture
- Format: cell-based
- condition.parameters: Acinetobacter baumannii, CDC0036, read-out: MIC, A. baumannii CDC-0036
metric: MIC

Sample O=C(NCCS(=O)(=O)N1CCN(C(=O)NC(C(=O)N[C@H]2Cc3ccc(F)c(C(=O)O)c3OB2O)c2cc(F)c(O)c(O)c2Cl)C1=O)c1cccnc1 (stereo partly drawn) ; MIC observed: < 1 mg/L

Sample O=C(O)c1c(F)ccc2c1OB(O)[C@@H](NC(=O)C(NC(=O)N1CCN(C3CCN(C(=O)c4cncc(O)c4)CC3)C(=O)C1=O)c1cc(F)c(O)c(O)c1Cl)C2 (stereo partly drawn) ; MIC observed: < 1 mg/L

Sample O=C(NCCCN1CCN(C(=O)NC(C(=O)N[C@H]2Cc3ccc(F)c(C(=O)O)c3OB2O)c2cc(F)c(O)c(O)c2Cl)C(=O)C1=O)c1nccs1 (stereo partly drawn) ; MIC observed: 2 to 4 mg/L
